testTarget: the molecule itself
measurementNotes: cross-linking; Ca2+-loaded proteins: 0.02% glutaric aldehyde, 16 h, 20 °C, protein 1 mg/mL, 20 mM Tricine-KOH pH 7.4, 50 mM KCl, 1 mM DTT, 1 mM CaCl2; SDS-PAGE, Coomassie, densitometry; self-association
valueType: Multimer 100–250 kDa, %

[in] Give the reported value of Multimer 100–250 kDa, % for this record: human recoverin mutant F70A (natural protein, UniProt P35243 1-200, looked up, myristoylated (fraction of non-myristoylated forms did not exceed 16%), recoverin, human, UniProt P35243, N-terminal 'gray' cluster mutant; Parent construct as m1; source: E. coli, expressed and purified similarly to the rWT protein (phenyl-Sepharose, Toyopearl SuperQ-650M)) MGNSKSGALSKEILEELQLNTKFSEEELCSWYQSFLKDCPTGRITQQQFQSIYAKFFPDTDPKAYAQHVARSFDSNLDGTLDFKEYVIALHMTTAGKTNQKLEWAFSLYDVDGNGTISKNEVLEIVMAIFKMITPEDVKLLPDDENTPEKRAEKIWKYFGKNDDDKLTEKEFIEGTLANKEILRLIQFEPQKVKEKMKNA
[out] 11.4%

[in] Name the recorded Multimer 100–250 kDa, % of the protein listed here: human recoverin mutant E169A (natural protein, UniProt P35243 1-200, looked up, myristoylated (fraction of non-myristoylated forms did not exceed 16%), recoverin, human, UniProt P35243, C-terminal 'black' cluster mutant; Parent construct as m1; source: E. coli, expressed and purified similarly to the rWT protein (phenyl-Sepharose, Toyopearl SuperQ-650M)) MGNSKSGALSKEILEELQLNTKFSEEELCSWYQSFLKDCPTGRITQQQFQSIYAKFFPDTDPKAYAQHVFRSFDSNLDGTLDFKEYVIALHMTTAGKTNQKLEWAFSLYDVDGNGTISKNEVLEIVMAIFKMITPEDVKLLPDDENTPEKRAEKIWKYFGKNDDDKLTAKEFIEGTLANKEILRLIQFEPQKVKEKMKNA
[out] 27.2%

[in] # return recorded Multimer 100–250 kDa, % for input human recoverin mutant K119A (natural protein, UniProt P35243 1-200, looked up, myristoylated (fraction of non-myristoylated forms did not exceed 16%), recoverin, human, UniProt P35243, C-terminal 'gray' cluster mutant; Parent construct as m1; source: E. coli, expressed and purified similarly to the rWT protein (phenyl-Sepharose, Toyopearl SuperQ-650M)) MGNSKSGALSKEILEELQLNTKFSEEELCSWYQSFLKDCPTGRITQQQFQSIYAKFFPDTDPKAYAQHVFRSFDSNLDGTLDFKEYVIALHMTTAGKTNQKLEWAFSLYDVDGNGTISANEVLEIVMAIFKMITPEDVKLLPDDENTPEKRAEKIWKYFGKNDDDKLTEKEFIEGTLANKEILRLIQFEPQKVKEKMKNA
[out] 31.4%
